System: HIV-1 (NL4-3 strain)
Experiment: Assay for Inhibition of HIV Replication (kinetic assay, MT4-gag-GFP reporter cell line; VIKING)
Type: cell-based
Details: MT4-GFP cells infected with HIV-1 NL4-3; 100% normal human serum (NHS); read-out: VIKING IP50 (nM) with 100% NHS
Property label: log10 of IC50 (log10 of the value in nM)

# Molecule, log10 of IC50
records = [
    ("CC(=O)N1C2C3CCc4c(C(=O)NCc5cccc(Cl)c5F)c(=O)c(O)c(n43)C(=O)N2C[C@@H]1C (stereo partly shown) [Compound 123]", 1.77),
    ("COC1CC2C3OCCN3C(=O)c3c(O)c(=O)c(C(=O)NCc4ccc(F)cc4F)c1n32 (single isomer, unassigned) [Compound 73]", 1.69),
    ("COC1CC2C3OCCN3C(=O)c3c(O)c(=O)c(C(=O)NCc4ccc(F)cc4F)c1n32 (single isomer, unassigned) [Compound 74]", 2.26),
    ("O=C(NCc1ccc(F)cc1)c1c2n3c(c(O)c1=O)C(=O)N1CCCOC1C3CC2 (single isomer, unassigned) [Compound 54]", 2.96),
    ("O=C(NCc1ccccc1F)c1c2n3c(c(O)c1=O)C(=O)N1CCOC1C3CC2 (single isomer, unassigned) [Compound 11]", 2.77),
    ("CCNC1CC2C3OCCCN3C(=O)c3c(O)c(=O)c(C(=O)NCc4c(F)cc(F)cc4F)c1n32 (stereo not shown) [Compound 183]", 3.55),
    ("O=C(NCc1c(F)cc(F)cc1F)c1c2n3c(c(O)c1=O)C(=O)N1C4CCC(C4)OC1C3CC2 (stereo not shown) [Compound 170]", 3.73),
]

====

System: HIV-1 (NL4-3 strain)
Assay: Assay for Inhibition of HIV Replication (kinetic assay, MT4-gag-GFP reporter cell line; VIKING)
Format: cell-based
Details: MT4-GFP cells infected with HIV-1 NL4-3; 0% normal human serum (NHS); read-out: VIKING IP50 (nM) with 0% NHS
Below, each entry is listed with its recorded IC50.

# Compound, IC50
measured = [
    ("O=C(NCc1c(F)cc(F)cc1F)c1c2n3c(c(O)c1=O)C(=O)N1C4CCC(C4)OC1C3CC2 (stereo not drawn) [Compound 170]", "2.59 nM"),
    ("CN1CCCN2C(=O)c3c(O)c(=O)c(C(=O)NCc4cccc(Cl)c4F)c4n3C(CC4)C12 (single isomer, unassigned) [Compound 87]", "0.875 nM"),
    ("CCNC1CC2C3OCCCN3C(=O)c3c(O)c(=O)c(C(=O)NCc4c(F)cc(F)cc4F)c1n32 (stereo not drawn) [Compound 183]", "13.3 nM"),
    ("CCNC1C[C@H]2[C@H]3OC4CCC(C4)N3C(=O)c3c(O)c(=O)c(C(=O)NCc4ccc(F)cc4F)c1n32 (stereo partly drawn)", "11.2 nM"),
    ("CCNC1CC2C3OCCCN3C(=O)c3c(O)c(=O)c(C(=O)NCc4c(F)cc(F)cc4F)c1n32 (stereo not drawn) [Compound 184]", "5 nM"),
    ("C[C@H]1CNC2C3CCc4c(-c5nnc(Cc6ccc(F)cc6F)s5)c(=O)c(O)c(n43)C(=O)N21 (stereo partly drawn) [Compound 128]", "6.69 nM"),
    ("CCNC1CC2C3OCCCN3C(=O)c3c(O)c(=O)c(C(=O)NCc4cccc(F)c4F)c1n32 (stereo not drawn) [Compound 192]", "8.76 nM"),
    ("O=C(NCc1ccc(F)c(Cl)c1F)c1c2n3c(c(O)c1=O)C(=O)N1C4CCC(C4)OC1C3CC2 (stereo not drawn) [Compound 156]", "11.8 nM"),
    ("O=C(NCc1ccc(F)c(Cl)c1F)c1c2n3c(c(O)c1=O)C(=O)N1C4CCC(C4)OC1C3CC2 (stereo not drawn) [Compound 158]", "4 nM"),
    ("O=C(NCc1cccc(F)c1F)c1c2n3c(c(O)c1=O)C(=O)N1C4CCC(C4)OC1C3CC2 (stereo not drawn) [Compound 165]", "6.42 nM"),
    ("CCNC1CC2C3OCCCN3C(=O)c3c(O)c(=O)c(C(=O)NCc4ccc(F)cc4F)c1n32 (stereo not drawn) [Compound 203]", "6.47 nM"),
    ("CN1CCCN2C(=O)c3c(O)c(=O)c(C(=O)NCc4cccc(Cl)c4F)c4n3C(CC4)C12 (single isomer, unassigned) [Compound 86]", "0.426 nM"),
    ("C[C@H]1CN2C(=O)c3c(O)c(=O)c(C(=O)NCc4cccc(Cl)c4F)c4n3C(CC4)C2N1C (stereo partly drawn) [Compound 104]", "0.397 nM"),
    ("CCNC1CC2C3OCCCN3C(=O)c3c(O)c(=O)c(C(=O)NCc4c(F)cc(F)cc4F)c1n32 (stereo not drawn) [Compound 182]", "6.63 nM"),
    ("CN1CCCN2C(=O)c3c(O)c(=O)c(C(=O)NCc4ccc(F)cc4F)c4n3C(CC4)C12 (single isomer, unassigned) [Compound 82]", "1.17 nM"),
    ("C[C@H]1COC2C3CCc4c(C(=O)NCc5cccc(Cl)c5F)c(=O)c(O)c(n43)C(=O)N21 (single isomer, unassigned) [Compound 31]", "0.418 nM"),
    ("C[C@H]1CNC2C3CCc4c(C(=O)NCc5ccc(F)cc5F)c(=O)c(O)c(n43)C(=O)N21 (stereo partly drawn) [Compound 101]", "1.99 nM"),
    ("C[C@@H]1CN2C(=O)c3c(O)c(=O)c(C(=O)NCc4cccc(Cl)c4F)c4n3C(CC4)C2O1 (single isomer, unassigned) [Compound 39]", "0.575 nM"),
    ("O=C(NCc1c(F)cccc1F)c1c2n3c(c(O)c1=O)C(=O)N1CCOC1C3CC2 (single isomer, unassigned) [Compound 14]", "0.827 nM"),
    ("COC1CC2C3OCCN3C(=O)c3c(O)c(=O)c(C(=O)NCc4ccc(F)cc4F)c1n32 (single isomer, unassigned) [Compound 73]", "0.679 nM"),
    ("C[C@H]1CN2C(=O)c3c(O)c(=O)c(C(=O)NCc4cccc(Cl)c4F)c4n3C(CC4)C2O1 (single isomer, unassigned) [Compound 44]", "0.879 nM"),
    ("CCNC1CC2C3OCCCN3C(=O)c3c(O)c(=O)c(C(=O)NCc4cccc(Cl)c4F)c1n32 (stereo not drawn) [Compound 199]", "7.12 nM"),
    ("CN1CCCN2C(=O)c3c(O)c(=O)c(C(=O)NCc4ccc(F)cc4F)c4n3C(CC4)C12 (single isomer, unassigned) [Compound 83]", "0.857 nM"),
    ("O=C(NCc1ccc(F)cc1)c1c2n3c(c(O)c1=O)C(=O)N1CCCOC1C3CC2 (single isomer, unassigned) [Compound 54]", "0.654 nM"),
    ("CCNC1CC2C3OCCCN3C(=O)c3c(O)c(=O)c(C(=O)NCc4cccc(Cl)c4F)c1n32 (stereo not drawn) [Compound 196]", "15.3 nM"),
    ("O=C(NCc1ccccc1F)c1c2n3c(c(O)c1=O)C(=O)N1CCOC1C3CC2 (single isomer, unassigned) [Compound 11]", "1.09 nM"),
    ("C[C@H]1CNC2C3CCc4c(C(=O)NCc5cccc(Cl)c5F)c(=O)c(O)c(n43)C(=O)N21 (stereo partly drawn) [Compound 89]", "0.709 nM"),
]
